# SYSTEM NAME: T1, human MSLN-R2-his protein (human, UniProt Q13421 391-486)
# T1 construct: it is put last here; also called human MSLN-R2 protein; hMSLN-R2-his; not shown: His tag
# T1 sequence (Q13421 other isoform, or with tags, fused parts or gaps): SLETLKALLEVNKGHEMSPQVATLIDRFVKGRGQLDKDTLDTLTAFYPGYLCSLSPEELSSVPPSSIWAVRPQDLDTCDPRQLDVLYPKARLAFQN
# ASSAY TEXT: ELISA on coated antigen, antibody 0.2 nM

>  <BINDER>
S009-F7.65.13 (antibody, human IgG1, kappa, V domains shown, Human-murine chimeric antibody, human IgG1 heavy and kappa light constant regions) VH: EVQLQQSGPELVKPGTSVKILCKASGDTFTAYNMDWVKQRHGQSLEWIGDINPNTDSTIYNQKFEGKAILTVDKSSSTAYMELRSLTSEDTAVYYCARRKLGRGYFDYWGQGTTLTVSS VL: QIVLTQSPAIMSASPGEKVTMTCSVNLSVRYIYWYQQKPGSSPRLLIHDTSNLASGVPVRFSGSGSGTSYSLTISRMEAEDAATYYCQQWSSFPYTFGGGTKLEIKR

>  <OD450 / OD>
0.05

$$$$
>  <BINDER>
S009-F7.2.3 (antibody, human IgG1, kappa, V domains shown, Human-murine chimeric antibody, human IgG1 heavy and kappa light constant regions) VH: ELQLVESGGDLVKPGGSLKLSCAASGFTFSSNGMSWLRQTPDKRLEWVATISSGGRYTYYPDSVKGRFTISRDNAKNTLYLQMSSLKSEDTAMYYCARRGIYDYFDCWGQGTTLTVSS VL: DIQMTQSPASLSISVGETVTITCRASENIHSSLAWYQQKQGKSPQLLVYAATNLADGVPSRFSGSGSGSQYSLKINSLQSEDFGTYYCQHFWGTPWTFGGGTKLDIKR

>  <OD450 / OD>
2.12

$$$$
>  <BINDER>
S009-F7.23.19 (antibody, human IgG1, kappa, V domains shown, Human-murine chimeric antibody, human IgG1 heavy and kappa light constant regions) VH: EVKLVESGGGLVQPGGSLSLSCAASGFTFTDYYMSWVRQPPGKALEWLGFIRSKANAYTTEYSASVKGRFTISRDNSQSILYLQMNDLRAEDSATYYCARYYYYGSGYVWYFDVWGTGTTVTVSS VL: DIVMTQSQKFMSTSVGDRVSVTCKASQSVGTNVAWYQQKPGQFPKALIYSASYRYSGVPDRFTGSGSGTDFTLTIINVQSEDLAEYFCQQYNSYPLTFGAGTKLELKR

>  <OD450 / OD>
0.05

$$$$
>  <BINDER>
S009-F7.18.10 (antibody, human IgG1, kappa, V domains shown, Human-murine chimeric antibody, human IgG1 heavy and kappa light constant regions) VH: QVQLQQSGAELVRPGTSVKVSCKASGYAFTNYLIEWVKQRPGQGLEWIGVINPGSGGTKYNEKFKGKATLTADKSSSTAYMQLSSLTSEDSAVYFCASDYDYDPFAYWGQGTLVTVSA VL: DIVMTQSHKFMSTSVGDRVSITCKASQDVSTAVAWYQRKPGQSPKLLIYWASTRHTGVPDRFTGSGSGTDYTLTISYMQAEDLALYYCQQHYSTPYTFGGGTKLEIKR

>  <OD450 / OD>
0.06

$$$$
>  <BINDER>
S009-F7.48.1 (antibody, human IgG1, kappa, V domains shown, Human-murine chimeric antibody, human IgG1 heavy and kappa light constant regions) VH: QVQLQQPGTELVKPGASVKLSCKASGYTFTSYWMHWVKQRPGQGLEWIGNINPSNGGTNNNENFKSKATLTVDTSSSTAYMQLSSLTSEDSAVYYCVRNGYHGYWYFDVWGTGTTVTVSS VL: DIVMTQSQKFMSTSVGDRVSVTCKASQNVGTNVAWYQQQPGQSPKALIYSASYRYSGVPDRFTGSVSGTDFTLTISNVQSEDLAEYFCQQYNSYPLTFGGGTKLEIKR

>  <OD450 / OD>
0.05

$$$$
